B1: POU domain, class 2, transcription factor 1, residues 285 to 354; numbered along this chain, P14859 (parent)
chain: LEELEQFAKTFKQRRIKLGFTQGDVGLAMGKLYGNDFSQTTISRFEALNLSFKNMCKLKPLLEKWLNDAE

variants of: B1; experiment: abundance fitness (aPCA) (normalised: wild type 0, dead -1); higher = more abundant; growth selection in yeast, the domain comes from the species named; details: Homo sapiens
readout.type: abundance fitness
No unit in the answer, only the number.

Use the examples below as a reference point.
{"columns": ["mutation.id", "abundance fitness"],
 "data": [
  ["P60I", -0.059],
  ["N49F", -0.279],
  ["S51H", -0.076],
  ["L18S", -0.094],
  ["L66K", -0.476],
  ["E63L", 0.024],
  ["L18T", -0.386],
  ["N49E", 0.043]
]}

Request the reported abundance fitness associated with G23C -0.073

Request the reported abundance fitness associated with I42K -0.789

Request the reported abundance fitness associated with G34E -0.01
